# TGI listing for each entry below
- Test system: NCI-H226 lung
- ASSAY NOTES: NCI tumour cell line growth inhibition, 48 h

Here's what some known entries look like.
// query Endpoint output: TGI of `Nc1[nH]c(=S)[nH]c(=O)c1N=Nc1c(Br)cc(S(N)(=O)=O)cc1Br` . Value?
// result > 100 µM

// query Queued: `OC[C@H](O)[C@@H](OCc1ccccc1)[C@H](NCc1ccccc1)c1cccs1`
// result > 100 µM

// query Queued: c1ccc(C2SCc3nc4ccccc4n32)cc1 (stereo unspecified)
// result > 100 µM

// query Queued: `Cn1c(SCc2ccc([N+](=O)[O-])cc2)nnc1C12CC3CC(CC(C3)C1)C2`
// result > 10 µM

// query Queued: `O=C(NNC(=O)c1ccccc1O)c1cccs1`
// result > 100 µM

Continuing:
// query Endpoint output: TGI of `Cc1ccc2c(=O)cc(-c3ccccc3)[nH]c2n1` . Value?
// result 9.69 µM
